# protocol-notes: amyloid nucleation score (Sup35N fusion, yeast selection) (log enrichment); library NNK1; higher = more nucleation; inactive = no reads after selection;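 also: zero at mode of non-aggregating sequences after 7 days selection at 30°C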
Lab note: anything with amyloid nucleation score at or over -0.2 counts as 1 (yes); the rest go in 0 (no).

query: Item RSSMPRSWAVWPRWE with amyloid nucleation score of -0.2 or above?
result: 1 (yes)

query: Please do the same for VNCVGKLKFDE as well.
result: 1 (yes)

query: Lookup LVHRRFMESDISGLCCALLW
result: 0 (no)

query: Same for VLYLMAAPIVMVYV
result: 1 (yes)

query: Repeat with VLCSSWLLWKDAI
result: 1 (yes)

query: Also SFWYYGDEKNVTVNLGFNES , if possible.
result: 0 (no)

query: Entry HQLLTVL please
result: 0 (no)

query: Next substance: YFLLLRFY
result: 1 (yes)

query: And what about the substance MFYVPIGPLSRCWRTALGFI ?
result: 0 (no)

###

# protocol-notes: amyloid nucleation score (Sup35N fusion, yeast selection) (log enrichment); library NNK2; higher = more nucleation; inactive = no reads after selection
Classification field: 1.0 = amyloid nucleation score at or over -0.03; 0.0 = amyloid nucleation score under -0.03.

query: hey, is amyloid nucleation score for this one >= -0.03? SGLEEYLSHLMLQVRFQESR
result: 1.0

query: Now the substance CHRLSNLKRVDDAGFVRWNY
result: 0.0

query: Can you handle YQIFNKLVAHFKYNYTQTDR next?
result: 0.0

query: Now give it for YCITEVRWAVA too.
result: 1.0

query: Could you do the same for WESRLLEYLCTDVNTME , please?
result: 0.0

query: Another: GKCRRPMCGGKFGDQGLLRL
result: 1.0

query: Likewise for CLSGLLIWAHHSLKLDVLIG ?
result: 1.0

query: Thanks! And LLLILTL ?
result: 1.0

###

Would you kindly list amyloid nucleation score for each of these sequences?
# protocol-notes: amyloid nucleation score (Sup35N fusion, yeast selection) (log enrichment); library NNK1; higher = more nucleation; inactive = no reads after selection
// return just the number, without any unit appended

query: # query: amyloid nucleation score of entry MEIRYYFVFEEDGRVFEGGT
result: 0.025

query: Moving on to the next sequence: RSSILMVVVANHSIIVTRGV
result: 3.04

query: # repeat for PSSLLNMDTTRGYHDPEWGI
result: -0.381

query: Please give the result for FSNLKISWECNRCGSYYDCE too.
result: -0.122

query: What about this sequence? ILRAFWESGHTGGVWATVSS
result: -1.19

query: Repeat for the following sequence: LFMLSIHFGVHILSRLW
result: 1.57

query: Ok, now NTAFLAVLSNALMVGMYSLL
result: 0.606

query: Again, but for SYNFLRPYLLFSHPFSYDSS
result: 0.21

query: Continue with CHNHRMYH
result: 0.072

query: For PVVCYTVAFVTGSTDVV then?
result: -0.139

query: Next record, please: TACRLQYSNSYLFLSSAEPV
result: 1.28

query: Field entry: MITWKGLFPAGVGFLRLHA
result: -0.024

query: Please do the same for HMWSESQIVGRLYVYRNIVV as well.
result: 0.747

query: Try this sequence too: CWIMYDYSSPGLFL
result: -1.1

query: Here is the next sequence: CPTEGGLVWSYWSLS
result: 1.09

query: And the next one, SNPSVNRHFVSSRGWLGKSN ?
result: -0.422

query: Quick one: CCFSSMNFIS
result: 4.04

query: Same question, GGRLNQHLRSNNTGTHHPGY this time
result: -0.533

query: Also, FNPLRVNYGLWDRSAR please.
result: 0.248

query: Now give it for SCYGEFEPFRESRMGRSNLA too.
result: 0.538

query: Now give it for YVNRVPLLEVLCP too.
result: -0.118

query: Now the sequence SCSELGMLERLDMGLTLEVL
result: -0.105

query: Then FSMIMSLDVL ?
result: -0.397

query: Moving on to the next sequence: SRCRNYYKVHVL
result: -1.17

query: SMCNCDPSVALRSMY , same question.
result: -0.279
